Listing of recorded % Inhibition (FS) 3 μM by entry.
biological target: β-secretase(BACE) (Homo sapiens, UniProt P56817); construct: purchased Panvera; assay: BACE FS1% Inhibition Assay; assay type: biochemical; settings: 3 μM test compound; FS1 substrate
Sequence (P56817 46-501): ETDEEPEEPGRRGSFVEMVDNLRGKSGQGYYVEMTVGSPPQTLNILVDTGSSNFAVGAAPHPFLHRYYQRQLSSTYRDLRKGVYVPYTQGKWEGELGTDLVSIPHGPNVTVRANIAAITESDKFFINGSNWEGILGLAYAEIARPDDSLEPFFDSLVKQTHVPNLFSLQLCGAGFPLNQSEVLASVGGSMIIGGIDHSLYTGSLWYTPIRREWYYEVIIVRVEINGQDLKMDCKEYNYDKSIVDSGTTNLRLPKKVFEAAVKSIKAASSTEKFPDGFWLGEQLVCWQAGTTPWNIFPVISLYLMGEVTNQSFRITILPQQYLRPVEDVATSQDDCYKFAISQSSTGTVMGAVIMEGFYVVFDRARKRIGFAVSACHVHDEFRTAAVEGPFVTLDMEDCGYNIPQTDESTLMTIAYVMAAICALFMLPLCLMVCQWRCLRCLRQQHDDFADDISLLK

compound: NC1=Nc2ccc(Oc3ccccc3)cc2CN1Cc1cccc(C(=O)NC2CCCCC2)c1
% Inhibition (FS) 3 μM: <30%
//
compound: CCCC=Cc1ccc2c(c1)CN(CCNC(=O)Cc1ccccc1)C(N)=N2
% Inhibition (FS) 3 μM: <30%
//
compound: COc1ccc2c(c1)C(CC(=O)N(C)C1CCCCC1)CC2N1Cc2cc(Oc3ccccc3)ccc2N=C1N (stereo not shown)
% Inhibition (FS) 3 μM: <30%
//
compound: NC1=Nc2ccc(Oc3ccccc3)cc2CN1Cc1ocnc1C(=O)NC1CCCCC1
% Inhibition (FS) 3 μM: <30%

====

Listing of recorded % Inhibition (FS) 3 μM by entry.
target: β-secretase(BACE) (Homo sapiens, UniProt P56817); construct: purchased Panvera; assay: BACE FS1% Inhibition Assay; type: biochemical; settings: 3 μM test compound; FS1 substrate
propertyName: % Inhibition (FS) 3 μM

molecule: CC(=O)c1cccc(-c2ccc3c(c2)CN(CCNC(=O)CC2CCCC2)C(N)=N3)c1
dataValue: <30%
--
molecule: COc1cccc(OC)c1Oc1ccc2c(c1)CN(CCC(=O)NC1C3CC4CC(C3)CC1C4)C(N)=N2 (stereo not drawn)
dataValue: <30%
--
molecule: CC(C)CCC(=O)NCC(Cc1ccc(O)cc1)N1Cc2cc(Oc3ccccc3)ccc2N=C1N (stereo not drawn)
dataValue: <30%

====

biological target: β-secretase(BACE) (Homo sapiens, UniProt P56817); construct: purchased Panvera; assay: BACE Assay-2 (FS1 substrate, IC50 and Ki); format: biochemical; conditions: procedure of Example 159, FS1 substrate
propertyName: IC50 (µM)

mol: CC(C)(C)OC(=O)NCCN1Cc2cc(Oc3ccccc3)ccc2N=C1N
propertyName: IC50
quantityUnit: µM
dataValue: 0.94
//
mol: CC(C)(C)OC(=O)NCCCCN1Cc2cc(Oc3ccccc3)ccc2N=C1N
propertyName: IC50
quantityUnit: µM
dataValue: 11
//
mol: CC(C)(C)OC(=O)NCCCN1Cc2cc(Oc3ccccc3)ccc2N=C1N
propertyName: IC50
quantityUnit: µM
dataValue: 3.6
//
mol: NC1=Nc2ccc(C(=O)c3ccccc3)cc2CN1CCCCC(=O)N(C1CCCCC1)C1CCCCC1
propertyName: IC50
quantityUnit: µM
dataValue: 2.1
//
mol: NC1=Nc2ccc(Oc3ccccc3)cc2CN1Cc1cccc(C(=O)N(C2CCCCC2)C2CCCCC2)c1
propertyName: IC50
quantityUnit: µM
dataValue: 2.3
//
mol: NC1=Nc2ccc(C(=O)c3ccccc3)cc2CN1CCCOc1ccccc1
propertyName: IC50
quantityUnit: µM
dataValue: 15
//
mol: CN(Cc1cccc2ccccc12)C(=O)CCCCN1Cc2cc(C(=O)c3ccccc3)ccc2N=C1N
propertyName: IC50
quantityUnit: µM
dataValue: 13
//
mol: NC1=Nc2ccc(Oc3ccccc3)cc2CN1CCCNC(=O)C1CCCCC1
propertyName: IC50
quantityUnit: µM
dataValue: 0.954
//
mol: CN(C(=O)c1cccc(CN2Cc3cc(Oc4cccc(NS(=O)(=O)c5ccccc5)c4)ccc3N=C2N)c1)C1CCCCC1
propertyName: IC50
quantityUnit: µM
dataValue: 1.24
//
mol: NC1=Nc2ccc(C(=O)c3ccccc3)cc2CN1CCNC(=O)C1CCCCC1
propertyName: IC50
quantityUnit: µM
dataValue: 5.3
//
mol: CN(C(=O)CCCCN1Cc2cc(C(=O)c3ccccc3)ccc2N=C1N)C1CCCCC1
propertyName: IC50
quantityUnit: µM
dataValue: 3
//
mol: CN(C(=O)CCC(CCC(=O)N(C)C1CCCCC1)N1Cc2cc(Oc3ccccc3)ccc2N=C1N)C1CCCCC1
propertyName: IC50
quantityUnit: µM
dataValue: 3.1
//
mol: CCCN1Cc2cc(Oc3cccc(N(C(=O)OCc4ccccc4)C4CCCCC4)c3)ccc2N=C1N
propertyName: IC50
quantityUnit: µM
dataValue: 2.8
